Origin of values: ChEMBL document CHEMBL3785085

- ASSAY DETAILS: Half life in healthy human volunteer (5 volunteers) at 5 mg/kg, po administered as single dose by gas chromatographic method
- Format: ADME, organism-based
- MEASUREMENT CONTEXT: in vivo
READOUT NAME: half-life (h)
Return type: number; implicit unit h.

half-life reported for this molecule O=C1N=C([O-])NC1(c1ccccc1)c1ccccc1.[Na+] [PHENYTOIN SODIUM] : 16.6

* * *

- ASSAY DETAILS: Half life during steady state in healthy human volunteer (5 volunteers) at 2 mg/kg, po bid administered for 12 days by gas chromatographic method
- Format: ADME, organism-based
- MEASUREMENT CONTEXT: in vivo
READOUT NAME: half-life (h)
Return type: number; implicit unit h.

half-life reported for this compound O=C1N=C([O-])NC1(c1ccccc1)c1ccccc1.[Na+] [PHENYTOIN SODIUM] : 21.3

* * *

- ASSAY DETAILS: Apparent volume of distribution (area) in healthy human volunteer (5 volunteers) at 5 mg/kg, iv administered as single dose through infusion by gas chromatographic method
- Assay type: ADME, organism-based
- MEASUREMENT CONTEXT: in vivo, read-out: Vd(app)
READOUT NAME: Vd (L/kg)
Return type: number; implicit unit L/kg.

Vd reported for this compound O=C1N=C([O-])NC1(c1ccccc1)c1ccccc1.[Na+] [PHENYTOIN SODIUM] : 0.52

* * *

- ASSAY DETAILS: Total plasma clearance in healthy human volunteer (5 volunteers) at 5 mg/kg, iv administered as single dose by gas chromatographic method
- Format: ADME, organism-based
READOUT NAME: clearance (mL/min/kg)
Return type: number; implicit unit mL/min/kg.

clearance reported for this compound O=C1N=C([O-])NC1(c1ccccc1)c1ccccc1.[Na+] [PHENYTOIN SODIUM] : 0.367

* * *

- ASSAY DETAILS: Drug uptake in healthy human volunteer (5 volunteers) at 5 mg/kg, iv administered as single dose through infusion after 0.5 hrs by gas chromatographic method
- Type: ADME, organism-based
- MEASUREMENT CONTEXT: in vivo, read-out: Drug uptake
READOUT NAME: concentration at 0.5 h (ng/mL)
Return type: number; implicit unit ng/mL.

concentration at 0.5 h reported for this molecule O=C1N=C([O-])NC1(c1ccccc1)c1ccccc1.[Na+] [PHENYTOIN SODIUM] : 8400

* * *

- ASSAY DETAILS: Half life at post steady state in healthy human volunteer (5 volunteers) at 2 mg/kg, po bid administered for 12 days by gas chromatographic method
- Format: ADME, organism-based
- MEASUREMENT CONTEXT: in vivo
READOUT NAME: half-life (h)
Return type: number; implicit unit h.

half-life reported for this molecule O=C1N=C([O-])NC1(c1ccccc1)c1ccccc1.[Na+] [PHENYTOIN SODIUM] : 15.9

* * *

- ASSAY DETAILS: Half life in healthy human volunteer (5 volunteers) at 5 mg/kg, iv administered as single dose through infusion by gas chromatographic method
- Format: ADME, organism-based
- MEASUREMENT CONTEXT: in vivo
READOUT NAME: half-life (h)
Return type: number; implicit unit h.

half-life reported for this compound O=C1N=C([O-])NC1(c1ccccc1)c1ccccc1.[Na+] [PHENYTOIN SODIUM] : 14.5
